Provide the recorded self-splicing fitness (ln) for the entries that follow.
- assay: self-splicing fitness, log relative to wild type (ln ratio); higher = more splicing; Tetrahymena group I intron in knt gene, E. coli kanamycin selection, DiMSum; sequences stand for … in CUCUCU…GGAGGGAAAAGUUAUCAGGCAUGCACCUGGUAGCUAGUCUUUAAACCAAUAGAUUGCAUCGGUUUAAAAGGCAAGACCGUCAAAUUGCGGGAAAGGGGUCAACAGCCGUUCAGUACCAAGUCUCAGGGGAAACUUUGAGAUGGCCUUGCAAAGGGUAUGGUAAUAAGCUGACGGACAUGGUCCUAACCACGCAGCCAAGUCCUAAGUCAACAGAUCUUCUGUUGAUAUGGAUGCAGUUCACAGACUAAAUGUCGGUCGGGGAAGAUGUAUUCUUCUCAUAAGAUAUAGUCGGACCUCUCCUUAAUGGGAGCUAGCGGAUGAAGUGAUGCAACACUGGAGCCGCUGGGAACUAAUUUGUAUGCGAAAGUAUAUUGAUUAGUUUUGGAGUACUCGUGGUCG;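 note: selection with 25 µg/mL kanamycin versus none on LB agar overnight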
- recorded-conditions: 30 °C
Just the number, please, no unit attached.

GET /value?item= `UUCCAGCAAUAUUACGUAUG` &field=self-splicing fitness (ln) returns -3.02

Per the records, this sequence ( `UCUAAGCAAUAUUACGCACU` ) has self-splicing fitness (ln) equal to -3.04

self-splicing fitness (ln) measured on `UAUUAGCAAUAUUACGGUAU` = -3.6

# self-splicing fitness (ln) (sequence: `AAUCAGCAAUAUUACGUACC` ) is -0.557

The reported value for `AAUCAGCAAUAUUACGGGCU` in terms of self-splicing fitness (ln) is -2.04

Field self-splicing fitness (ln) (entry `UUAAAGCAAUAUUACGAGGG` ) reads -2.1

Looking up `GAUCAGCAAUAUUACGUAUG` , I see its self-splicing fitness (ln) listed as -0.935

// sample `UAAAAGCAAUAUUACGACGC` , its self-splicing fitness (ln) was -2.67

Input `AUUUAGCAAUAUUACGCUUA` . Output self-splicing fitness (ln): -1.99

Recorded self-splicing fitness (ln) (sequence `CUAGAGCAAUAUUACGCAGU` ): -2.58

The value of self-splicing fitness (ln) measured for the sequence `GUUGAGCAAUAUUACGUAAA` turned out to be -2.7

Data point: `GACGAGCAAUAUUACGUCUA` ; self-splicing fitness (ln) = -2.4

###

- assay: self-splicing fitness, log relative to wild type (ln ratio); higher = more splicing; Tetrahymena group I intron in knt gene, E. coli kanamycin selection, DiMSum; sequences stand for … in CUCUCU…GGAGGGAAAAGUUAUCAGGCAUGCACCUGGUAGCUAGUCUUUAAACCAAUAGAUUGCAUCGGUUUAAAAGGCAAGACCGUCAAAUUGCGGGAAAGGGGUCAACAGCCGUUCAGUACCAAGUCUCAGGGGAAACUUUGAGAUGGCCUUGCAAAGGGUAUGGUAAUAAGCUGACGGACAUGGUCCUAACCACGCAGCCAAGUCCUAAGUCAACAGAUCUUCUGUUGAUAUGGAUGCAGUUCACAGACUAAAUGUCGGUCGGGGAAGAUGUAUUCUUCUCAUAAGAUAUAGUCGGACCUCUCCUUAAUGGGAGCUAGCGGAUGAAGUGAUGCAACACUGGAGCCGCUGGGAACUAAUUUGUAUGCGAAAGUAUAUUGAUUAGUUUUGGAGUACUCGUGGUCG
- recorded-conditions: 37 °C
reported-property: self-splicing fitness (ln)
Give the value as a plain number.

The sequence `AAUUAGCAAUAUUACGUACG` showed self-splicing fitness (ln) equal to -0.862

Memo: `GACAAGCAAUAUUACGGUGA` , reported self-splicing fitness (ln): -0.86

// field: self-splicing fitness (ln); key: `CGUGAGCAAUAUUACGUGGU` ; value = -2.42

Item: `CCGCAGCAAUAUUACGCGAC` | self-splicing fitness (ln): -2.09

Input `ACGUAGCAAUAUUACGCAGA` . Output self-splicing fitness (ln): -2.48

Note to self: self-splicing fitness (ln) recorded for `CCAUAGCAAUAUUACGUAUA` was -1.46

Query `ACACAGCAAUAUUACGCGGU` yields self-splicing fitness (ln) of -2.89

// `GUCUAGCAAUAUUACGAAUC` : self-splicing fitness (ln) value = 1.43

Sample `CAAAAGCAAUAUUACGGGUA` ; self-splicing fitness (ln) observed: -2.12

# self-splicing fitness (ln) of `CUAUAGCAAUAUUACGUUGG` = -2.79

Summary for this sequence, `UGGAAGCAAUAUUACGUCUU` : self-splicing fitness (ln) is -0.129

Value of self-splicing fitness (ln) reported for the sequence `AAACAGCAAUAUUACGUGAG` is -0.552

Recorded self-splicing fitness (ln) (sequence `CAUAAGCAAUAUUACGAAGG` ): -1.55

According to the records, this sequence `UAUGAGCAAUAUUACGAGAA` displays self-splicing fitness (ln) of -0.332

response.value for `UUAUAGCAAUAUUACGGGAA` (field: self-splicing fitness (ln)) = -1.26

###

- assay: self-splicing fitness, log relative to wild type (ln ratio); higher = more splicing; Tetrahymena group I intron in knt gene, E. coli kanamycin selection, DiMSum; sequences stand for … in CUCUCU…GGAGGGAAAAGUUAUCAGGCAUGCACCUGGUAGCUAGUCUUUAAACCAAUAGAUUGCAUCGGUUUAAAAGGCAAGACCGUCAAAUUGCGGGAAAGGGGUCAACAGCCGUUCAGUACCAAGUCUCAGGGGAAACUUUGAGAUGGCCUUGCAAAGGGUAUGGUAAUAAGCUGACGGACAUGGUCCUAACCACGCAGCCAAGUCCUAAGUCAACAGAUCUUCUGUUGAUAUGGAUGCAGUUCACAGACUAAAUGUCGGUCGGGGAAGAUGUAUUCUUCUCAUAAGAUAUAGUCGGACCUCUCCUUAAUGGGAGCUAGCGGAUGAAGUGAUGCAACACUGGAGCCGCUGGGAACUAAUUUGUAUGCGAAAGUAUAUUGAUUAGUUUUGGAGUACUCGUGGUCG
- recorded-conditions: 37 °C
Task for the reader: assign each of the following sequences its reported self-splicing fitness (ln).
Please state the value as a number alone, without comment.

Record `ACGAAGCAAUAUUACGACCC` . Reported self-splicing fitness (ln): 0.121

For this sequence ( `AGAGAGCAAUAUUACGGUAU` ), measured self-splicing fitness (ln) is -3.55

Recorded self-splicing fitness (ln) (sequence `CCCGAGCAAUAUUACGAUCC` ): -2.71

Per the record, `GUACAGCAAUAUUACGGCGU` has self-splicing fitness (ln) of 0.482

`UCCGAGCAAUAUUACGACUA` yielded self-splicing fitness (ln) of -2.21

// field: self-splicing fitness (ln); key: `CCCUAGCAAUAUUACGCCCU` ; value = -1.54

For this sequence ( `CUCUAGCAAUAUUACGGGUA` ), measured self-splicing fitness (ln) is -1.05

According to the records, this sequence `AUAUAGCAAUAUUACGUUUA` displays self-splicing fitness (ln) of -1.63

GET /value?item= `GUCCAGCAAUAUUACGGGUU` &field=self-splicing fitness (ln) returns -1.03

Sample `UCAAAGCAAUAUUACGUAUU` ; self-splicing fitness (ln) observed: -2.13

Lookup result for `AUUGAGCAAUAUUACGUUGA` ; measured self-splicing fitness (ln): -3.45

Value of measured self-splicing fitness (ln) for the entry `UAGUAGCAAUAUUACGUAAA` : -1.03

The sequence listed as `CGCGAGCAAUAUUACGCGCG` has a reported self-splicing fitness (ln) of -2.07

So for `UCCAAGCAAUAUUACGCCAA` , the logged self-splicing fitness (ln) turned out to be -0.487

Summary for this sequence, `CGUUAGCAAUAUUACGCAGA` : self-splicing fitness (ln) is -2.31

The sequence listed as `UAGGAGCAAUAUUACGCUUU` shows self-splicing fitness (ln) equal to -1.66

###

- assay: self-splicing fitness, log relative to wild type (ln ratio); higher = more splicing; Tetrahymena group I intron in knt gene, E. coli kanamycin selection, DiMSum; sequences stand for … in CUCUCU…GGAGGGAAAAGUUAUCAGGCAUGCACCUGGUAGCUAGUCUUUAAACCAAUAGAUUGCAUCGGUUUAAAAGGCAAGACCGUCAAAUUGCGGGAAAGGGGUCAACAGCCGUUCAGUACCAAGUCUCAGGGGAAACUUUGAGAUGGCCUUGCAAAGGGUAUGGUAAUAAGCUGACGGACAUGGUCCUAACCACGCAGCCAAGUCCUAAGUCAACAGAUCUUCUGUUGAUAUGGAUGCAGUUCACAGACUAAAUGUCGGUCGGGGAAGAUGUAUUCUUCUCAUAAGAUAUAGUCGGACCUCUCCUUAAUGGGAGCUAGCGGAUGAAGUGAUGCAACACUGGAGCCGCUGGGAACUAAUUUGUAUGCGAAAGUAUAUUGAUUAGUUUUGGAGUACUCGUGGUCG
- recorded-conditions: 37 °C
Use -1 as the dividing line for self-splicing fitness (ln), with the line itself on the YES side and lower values as NO.

Exam item: Record `GCGCAGCAAUAUUACGCAAA` ; criterion: self-splicing fitness (ln) no lower than -1. Met?
Marked response: YES

Exam item: Would you say `ACCGAGCAAUAUUACGACAU` shows self-splicing fitness (ln) at minimum -1?
Marked response: NO

Exam item: Check this sequence for self-splicing fitness (ln) at or above -1: `UCUUAGCAAUAUUACGCGGA`
Marked response: NO

Exam item: Is the recorded value of self-splicing fitness (ln) equal to or greater than -1 for this sequence? `UGGUAGCAAUAUUACGGCCU`
Marked response: YES

Exam item: Test whether the sequence `GCUUAGCAAUAUUACGGCAC` records self-splicing fitness (ln) of -1 or higher.
Marked response: YES

Exam item: Would you say `AUCGAGCAAUAUUACGCGUU` shows self-splicing fitness (ln) at minimum -1?
Marked response: NO

Exam item: Does the sequence `GUGGAGCAAUAUUACGACUU` have recorded self-splicing fitness (ln) that is -1 or more?
Marked response: YES

Exam item: Check the entry `GCUAAGCAAUAUUACGGCUG` : does self-splicing fitness (ln) equal or exceed -1?
Marked response: NO

Exam item: Hello, I need to know if `UUCCAGCAAUAUUACGGUAC` has measured self-splicing fitness (ln) not below -1. Thanks!
Marked response: NO

Exam item: Would you say `UACCAGCAAUAUUACGUACA` shows self-splicing fitness (ln) at minimum -1?
Marked response: YES

Exam item: Confirm if self-splicing fitness (ln) reported for the sequence `UGAUAGCAAUAUUACGGUCC` is -1 or above.
Marked response: YES

Exam item: Assess whether reported self-splicing fitness (ln) for `GGUAAGCAAUAUUACGCUAG` sits at -1 or higher.
Marked response: NO

Exam item: Does the sequence `CCAAAGCAAUAUUACGGAGC` have recorded self-splicing fitness (ln) that is -1 or more?
Marked response: NO

Exam item: Threshold query (self-splicing fitness (ln) >= -1) on `ACCCAGCAAUAUUACGGGCG`
Marked response: YES

Exam item: Test whether the sequence `GGCCAGCAAUAUUACGCGCG` records self-splicing fitness (ln) of -1 or higher.
Marked response: YES

Exam item: Does the reported self-splicing fitness (ln) for `CUUGAGCAAUAUUACGUUGU` fall at or above the -1 mark?
Marked response: NO

Exam item: Determine whether measured self-splicing fitness (ln) meets or exceeds -1 for `AUGCAGCAAUAUUACGAAGU`
Marked response: NO

Exam item: Quick check: does `UAGCAGCAAUAUUACGGGAA` have self-splicing fitness (ln) greater than or equal to -1?
Marked response: NO

Exam item: Does the sequence `GAGUAGCAAUAUUACGAAUA` have recorded self-splicing fitness (ln) that is -1 or more?
Marked response: NO

Exam item: Has `AAAGAGCAAUAUUACGGAUU` a recorded self-splicing fitness (ln) greater than or equal to -1?
Marked response: NO

Exam item: For this sequence, is measured self-splicing fitness (ln) -1 or higher? `AUCGAGCAAUAUUACGGCAC`
Marked response: NO

Exam item: Is self-splicing fitness (ln) at least -1? Consider `CGGCAGCAAUAUUACGAUAA`
Marked response: NO

Exam item: Please indicate if the recorded self-splicing fitness (ln) for `CGAGAGCAAUAUUACGAAAG` meets or exceeds -1.
Marked response: NO

Exam item: Please tell me: is the sequence `UGAUAGCAAUAUUACGUAAC` at or over -1 in terms of self-splicing fitness (ln)?
Marked response: NO

Exam item: Quick check, self-splicing fitness (ln) >= -1? `CCUCAGCAAUAUUACGAGAU`
Marked response: NO

Exam item: Is the recorded value of self-splicing fitness (ln) equal to or greater than -1 for this sequence? `ACUAAGCAAUAUUACGGGAC`
Marked response: YES

Exam item: Hello, I need to know if `UGGCAGCAAUAUUACGUUCA` has measured self-splicing fitness (ln) not below -1. Thanks!
Marked response: YES

Exam item: # bool: self-splicing fitness (ln) of `ACGGAGCAAUAUUACGAUGA` >= -1
Marked response: NO

Exam item: # check: self-splicing fitness (ln) of `UCGUAGCAAUAUUACGGAAG` is greater than or equal to -1
Marked response: NO

Exam item: Kindly determine if self-splicing fitness (ln) recorded for `GGUGAGCAAUAUUACGCUUG` is above or exactly -1.
Marked response: NO

Exam item: Would you say `CACAAGCAAUAUUACGAUGA` shows self-splicing fitness (ln) at minimum -1?
Marked response: NO

Exam item: decide whether the reported self-splicing fitness (ln) for `UGAUAGCAAUAUUACGAACA` is at least -1.
Marked response: YES

Exam item: Quick check: does `GGUAAGCAAUAUUACGACUG` have self-splicing fitness (ln) greater than or equal to -1?
Marked response: YES

Exam item: Quick check: does `AGUGAGCAAUAUUACGGAGU` have self-splicing fitness (ln) greater than or equal to -1?
Marked response: NO

Exam item: Entry `UAUAAGCAAUAUUACGUCUG` : is its self-splicing fitness (ln) no less than -1?
Marked response: YES

Exam item: # bool: self-splicing fitness (ln) of `AACUAGCAAUAUUACGUAAG` >= -1
Marked response: NO

Exam item: Hi, just wondering whether `GCUAAGCAAUAUUACGGCAU` shows self-splicing fitness (ln) of -1 or higher.
Marked response: YES

Exam item: Kindly determine if self-splicing fitness (ln) recorded for `UCGGAGCAAUAUUACGGUUG` is above or exactly -1.
Marked response: NO

Exam item: For this sequence, is measured self-splicing fitness (ln) -1 or higher? `UGAGAGCAAUAUUACGCACG`
Marked response: YES

Exam item: # check: self-splicing fitness (ln) of `GCCUAGCAAUAUUACGUAGG` is greater than or equal to -1
Marked response: NO

Exam item: API: above_or_equal(metric=self-splicing fitness (ln), cutoff=-1) for item `GUAAAGCAAUAUUACGAUAU`
Marked response: YES
